The values you see were collected from patent US5340565A.

Experiment: Cytotoxicity by trypan blue exclusion in HML
Assay type: cell-based
Settings: human, mononuclear leukocytes; 1000 μM agent, 18 hr incubation, HML; read-out: % Dead Cells 18 hr
MEASUREMENT NAME: cytotoxicity at 18 h, 1000 µM (%)
Report the figure in % without appending any unit label.

Just so you know, measured cytotoxicity at 18 h, 1000 µM for Cc1ccc(C2(O)CCN(CCCC(=O)c3ccc(F)cc3)CC2)cc1 [Moperone] came out at 100

====

Assay: Cytotoxicity by trypan blue exclusion in HML
Assay type: cell-based
Conditions: human, mononuclear leukocytes
MEASUREMENT NAME: cytotoxicity at 0.5 h, 50 µM (%)
Report the figure in % without appending any unit label.

Just so you know, measured cytotoxicity at 0.5 h, 50 µM for "NCCCCCCNS(=O)(=O)c1cccc2c(Cl)cccc12" came out at 10

====

Test: Cytotoxicity by trypan blue exclusion in HML
Type: cell-based
Conditions: human, mononuclear leukocytes; 100 μM agent, 18 hr incubation, HML; read-out: % Dead Cells 18 hr
MEASUREMENT NAME: cytotoxicity at 18 h, 100 µM

Just so you know, measured cytotoxicity at 18 h, 100 µM for CC(CN1CCN(CCOCCO)CC1)CN1c2ccccc2Sc2ccccc21 (stereo not shown) [Dixyrazine] came out at 78%

====

Assay: Cytotoxicity by trypan blue exclusion in HML
Assay type: cell-based
Conditions: human, mononuclear leukocytes; 1000 μM agent, 30 min incubation, HML; read-out: % Dead Cells 30 min
MEASUREMENT NAME: cytotoxicity at 0.5 h, 1000 µM (%)
Report the figure in % without appending any unit label.

Just so you know, measured cytotoxicity at 0.5 h, 1000 µM for "Cc1ccc(C2(O)CCN(CCCC(=O)c3ccc(F)cc3)CC2)cc1" came out at 26

====

Assay: Cytotoxicity by trypan blue exclusion in HML
Assay type: cell-based
Conditions: human, mononuclear leukocytes
MEASUREMENT NAME: cytotoxicity at 18 h, 5000 µM
Reply with the number, then its unit.

Just so you know, measured cytotoxicity at 18 h, 5000 µM for CCN(CC)CCNC(=O)c1cc(Cl)c(N)cc1OC [Metoclopramide] came out at 58%

====

Assay: Cytotoxicity by trypan blue exclusion in HML
Assay type: cell-based
Conditions: human, mononuclear leukocytes
MEASUREMENT NAME: cytotoxicity at 0.5 h, 5000 µM (%)
Report the figure in % without appending any unit label.

Just so you know, measured cytotoxicity at 0.5 h, 5000 µM for CCN(CC)CCNC(=O)c1cc(Cl)c(N)cc1OC [Metoclopramide] came out at 10

====

Experiment: Cytotoxicity by trypan blue exclusion in HML
Type: cell-based
Conditions: human, mononuclear leukocytes; 500 μM agent, 30 min incubation, HML; read-out: % Dead Cells 30 min
MEASUREMENT NAME: cytotoxicity at 0.5 h, 500 µM (%)
Report the figure in % without appending any unit label.

Observe how each entry below is paired with its result.
                                   compound               measurement_name  value_units  value_measured
0  Cc1ccc(C2(O)CCN(CCCC(=O)c3ccc(F)cc3)CC2)cc1  cytotoxicity at 0.5 h, 500 µM            %               7
1  CC(CN1CCN(CCOCCO)CC1)CN1c2ccccc2Sc2ccccc21 (stereo not drawn)  cytotoxicity at 0.5 h, 500 µM            %              79

--- query ---
Just so you know, measured cytotoxicity at 0.5 h, 500 µM for "CN(C)CCCN1c2ccccc2Sc2ccc(Cl)cc21" came out at 100

====

Experiment: Cytotoxicity by trypan blue exclusion in HML
Type: cell-based
Conditions: human, mononuclear leukocytes
MEASUREMENT NAME: cytotoxicity at 18 h, 10000 µM (%)
Report the figure in % without appending any unit label.

Just so you know, measured cytotoxicity at 18 h, 10000 µM for CCN(CC)CCNC(=O)c1cc(Cl)c(N)cc1OC [Metoclopramide] came out at 88

====

Assay: Cytotoxicity by trypan blue exclusion in HML
Assay type: cell-based
Settings: human, mononuclear leukocytes
MEASUREMENT NAME: cytotoxicity at 0.5 h, 2000 µM (%)
Report the figure in % without appending any unit label.

Just so you know, measured cytotoxicity at 0.5 h, 2000 µM for CCN(CC)CCNC(=O)c1cc(Cl)c(N)cc1OC [Metoclopramide] came out at 13

====

Tested on: ADPRT (adenosine diphosphate ribosyl transferase)
Experiment: ADPRT activity in permeabilized HML after 30 min exposure
Assay type: cell-based, human
Details: 100 μM agent, average of duplicates
MEASUREMENT NAME: ADPRT Activity

                                   compound                       value_measured
0  CC(CN(C)C)CN1c2ccccc2Sc2ccccc21 (stereo not shown) [Trimeprazine]   639 cpm TCA precipitable [3H]NAD p
1  CN(C)CCCN1c2ccccc2Sc2ccc(Cl)cc21 [Chlorpromazine]  1508 cpm TCA precipitable [3H]NAD p

Just so you know, measured ADPRT Activity for Cc1ccc(C2(O)CCN(CCCC(=O)c3ccc(F)cc3)CC2)cc1 [Moperone] came out at 529 cpm TCA precipitable [3H]NAD p

Just so you know, measured ADPRT Activity for OO [H2 O2] came out at 1800 cpm TCA precipitable [3H]NAD p

Just so you know, measured ADPRT Activity for NCCCCCCNS(=O)(=O)c1cccc2ccccc12 [W-5, N(6-aminohexyl)-naphthalenesulfonamide] came out at 415 cpm TCA precipitable [3H]NAD p

Just so you know, measured ADPRT Activity for NCCCCCCNS(=O)(=O)c1cccc2c(Cl)cccc12 [W-7] came out at 910 cpm TCA precipitable [3H]NAD p

Just so you know, measured ADPRT Activity for CC(CN1CCN(CCOCCO)CC1)CN1c2ccccc2Sc2ccccc21 (stereo not shown) [Dixyrazine] came out at 385 cpm TCA precipitable [3H]NAD p

====

Test: Cytotoxicity by trypan blue exclusion in HML
Assay type: cell-based
Conditions: human, mononuclear leukocytes; 200 μM agent, 30 min incubation, HML; read-out: % Dead Cells 30 min
MEASUREMENT NAME: cytotoxicity at 0.5 h, 200 µM

Just so you know, measured cytotoxicity at 0.5 h, 200 µM for NCCCCCCNS(=O)(=O)c1cccc2ccccc12 [W-5, N(6-aminohexyl)-naphthalenesulfonamide] came out at 7%

====

Assay: Cytotoxicity by trypan blue exclusion in HML
Format: cell-based
Conditions: human, mononuclear leukocytes; 100 μM agent, 30 min incubation, HML; read-out: % Dead Cells 30 min
MEASUREMENT NAME: cytotoxicity at 0.5 h, 100 µM

                                   compound  value_measured
0          CN(C)CCCN1c2ccccc2Sc2ccc(Cl)cc21             50%
1  Cc1ccc(C2(O)CCN(CCCC(=O)c3ccc(F)cc3)CC2)cc1              5%
2  CC(CN1CCN(CCOCCO)CC1)CN1c2ccccc2Sc2ccccc21 (centres unmarked)             13%
3  CC(CN(C)C)CN1c2ccccc2Sc2ccccc21 (centres unmarked)              7%

--- query ---
Just so you know, measured cytotoxicity at 0.5 h, 100 µM for NCCCCCCNS(=O)(=O)c1cccc2ccccc12 [W-5, N(6-aminohexyl)-naphthalenesulfonamide] came out at < 5%
